These data points were gathered from ChEMBL document CHEMBL5058577.

System: U2OS
Experiment: Multiplex assay against U2OS
Assay type: toxicity, cell-based
Settings: human, 24 h, 10 µM, compound concentration 10 uM, replicate 1
Non-standard residues stand in square brackets, D forms with d. Residues, ends and D or L forms follow the SMILES beside them.
Short version: Population Mitotic Cells (%) at least 10% is 1.0, less is 0.0.

Examples from the recorded data:
compound	assigned-class
CN(C)C/C=C/C(=O)Nc1ccc(C(=O)N2CCCC(Nc3ncc(Cl)c(-c4c[nH]c5ccccc45)n3)C2)cc1 (stereo not given)	1.0
COc1cc(C(=O)N2CC[C@@H](O)[C@@H](N)C2)cc2nc(-c3cc4ccccc4n3CC3CC3)n(C)c12.Cl	1.0
Cc1cc(NC(=O)NCCN2CCC(O)(Cc3ccccc3)CC2)c2ccccc2n1	0.0

Query: Population Mitotic Cells (%) >= 10% for Cc1nn(C)c2nc(NNC(=O)Nc3cc(Cl)nc(Cl)c3)cc(C(C)C)c12 ?
Response: 1.0

Query: Population Mitotic Cells (%) >= 10% for CN1CCN2c3ccccc3Cc3ccccc3C2C1.Cl (stereo not given) [MIANSERIN HYDROCHLORIDE] ?
Response: 1.0

Query: Population Mitotic Cells (%) >= 10% for N[C@](CC1c2ccccc2Oc2ccccc21)(C(=O)O)[C@H]1C[C@@H]1C(=O)O ?
Response: 1.0

Query: Population Mitotic Cells (%) >= 10% for CC(C)C[C@@H]1NC(=O)[C@@H](C(C)C)NC(=O)[C@@H]2CCCN2C(=O)[C@@H](CC(=O)O)NC(=O)[C@@H](Cc2c[nH]c3ccccc23)NC1=O [BQ-123] (cyclo(L[dW][dD]P[dV])) ?
Response: 0.0
